Cited source: PubChem BioAssay (Tox21)

- experiment description: qHTS assay for identifying genotoxic compounds that show differential cytotoxicity against isogenic chicken DT40 cell lines with known DNA damage response pathways - wild type cell line (AID 743012); note: nearly all actives have a fitted effect of over 60% in size
- experimental context: DT40 wild type chicken cells viability, CellTiter-Glo, 40 h; series mostly up to 68.4 µM
Records with an inconclusive call do not appear. Activity calls are given as the source filed them. Calls come from the whole dose curve; as a rule, active = well fitted cell-killing curve with a large enough effect in the repeat runs; inconclusive = weak or mixed curves, or effect the other way; inactive = no such curve, though single readings can be large or run the other way.
Hi! Could you answer with just one of these? 1 (yes) (active), 0 (no) (inactive)

| compound | classification |
| --- | --- |
| CCCCCCCCCCCCCCCCC(C(=O)O)C(O)(CC(=O)O)C(=O)O (stereo not drawn) | 0 (no) |
| O=C1c2ccccc2C(=O)C1c1ccc(F)cc1 | 0 (no) |
| CCc1ncnc2cc(OC)c(OC)cc12 | 0 (no) |
| CN=C(N)NCCC[C@H](N)C(=O)O | 0 (no) |
| CCOc1ccc(NC(=S)Nc2ccc(OCC)cc2)cc1 | 0 (no) |

Ask: Tell me the assay call for NCc1cccc(C2CCN(C(=O)c3ccc(C#Cc4ccccc4F)o3)CC2)c1 please.
Reply: 1 (yes)

Ask: Tell me the assay call for O=P(O)(O)CP(=O)(O)O please.
Reply: 0 (no)

Ask: Tell me the assay call for CC(C)=CCC/C(C)=C/CC/C(C)=C/CC/C=C(\C)CC/C=C(\C)CCC=C(C)C please.
Reply: 0 (no)

* * *

- experiment description: qHTS assay to identify small molecule antagonists of the androgen receptor (AR) signaling pathway using the MDA cell line - cell viability counter screen (AID 743041; note: nearly all actives have a fitted effect of over 45% in size)
- experimental context: MDA-kb2 viability, CellTiter-Fluor, 16 h, cells co-treated with R1881 androgen agonist; series mostly up to 70.3 µM
Results filed as inconclusive are left out. Calls of active or inactive are those of the source. Calls follow the shape of the dose curve; as a rule, active = well fitted cell-killing curve with a large enough effect in the repeat runs; inconclusive = weak or mixed curves, or effect the other way; inactive = flat fitted curve, though single readings scatter.
readout label: outcome

Observe how each entry below is paired with its result.
| molecule | readout label | result |
| --- | --- | --- |
| FC(F)(F)COCC(F)(F)F | outcome | inactive |
| CC(C)NCC1CCc2cc(CO)c([N+](=O)[O-])cc2N1 (stereo not given) | outcome | inactive |
| Cc1ncc(C[n+]2csc(CCOP(=O)(O)O)c2C)c(N)n1 | outcome | inactive |
| CC(C)c1ncc([N+](=O)[O-])n1C | outcome | inactive |

// moving on: another record for outcome
Ask: Recorded outcome for CC(O)(c1ccc(Cl)cc1)c1ccc(Cl)cc1 , please?
Reply: inactive

* * *

- target system: Cytochrome P450 2C9 (Homo sapiens)
- experiment description: Cytochrome P450 Family 2 Subfamily C Member 9 (CYP2C9) small molecule antagonists: luciferase reporter qHTS assay (AID 1671198); note: nearly all actives have a fitted effect of over 50% in size
- experimental context: P450-Glo CYP2C9 enzyme assay, luciferin luminescence; series mostly up to 115 µM
Results filed as inconclusive are left out. Calls of active or inactive are those of the source. The call rests on the fitted dose curve; in most records, active means well fitted inhibition curve with a large enough effect in the repeat runs; inconclusive means weak or mixed curves; inactive means no such curve, though single readings can be large or run the other way.
Hi! Could you answer with just one of these? active, inactive

Below, 5 compounds whose answers are already recorded.
| compound | classification |
| --- | --- |
| Cc1ccc(Cl)c(N)c1Cl | inactive |
| Cc1c(Cl)c(=O)oc2cc(O)ccc12 | inactive |
| CC(C)=NNC(N)=S | inactive |
| N#CCCOCCC#N | inactive |
| C=CC(=O)OCC(Br)CBr (centres undefined) | inactive |

Ask: Tell me the assay call for C/C(=C\c1ccc(C(=O)O)cc1)c1ccc2c(c1)C(C)(C)CCC2(C)C please.
Reply: inactive

Ask: Tell me the assay call for Cn1c(=O)[nH]c2ncn(C)c2c1=O please.
Reply: inactive

Ask: Tell me the assay call for c1ccc(-c2ccccc2-c2ccccc2)cc1 please.
Reply: active

Ask: Tell me the assay call for CC(C=O)c1ccccc1 (centres undefined) please.
Reply: active

* * *

- target system: Nuclear receptor subfamily 1 group I member 3 (Homo sapiens)
- experiment description: qHTS assay to identify small molecule antagonists of the constitutive androstane receptor (CAR) signaling pathway (AID 1224838);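 note: HepG2 cells stably expressing hCAR with CYP2B6 luciferase reporter stimulated by CITCO; nearly all actives have a fitted effect of over 40% in size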
- experimental context: HepG2-CYP2B6-hCAR luciferase, CITCO-stimulated, 24 h; series mostly up to 92.4 µM
Records with an inconclusive call do not appear. Activity calls are given as the source filed them. The call rests on the fitted dose curve; in most records, active means well fitted inhibition curve with a large enough effect in the repeat runs; inconclusive means weak or mixed curves, or effect the other way; inactive means no such curve, though single readings can be large or run the other way.
Hi! Could you answer with just one of these? active, inactive

Below, 4 molecules whose answers are already recorded.
| molecule | target system | classification |
| --- | --- | --- |
| O=C1CCCCCCCCCCCCCC1 | Nuclear receptor subfamily 1 group I member 3 (Homo sapiens) | inactive |
| [Cl][Dy]([Cl])[Cl] | Nuclear receptor subfamily 1 group I member 3 (Homo sapiens) | inactive |
| CSc1ccc(O)cc1C | Nuclear receptor subfamily 1 group I member 3 (Homo sapiens) | inactive |
| CCc1cccc(C)c1N(C(=O)CS(=O)(=O)O)C(C)COC (configuration not stated) | Nuclear receptor subfamily 1 group I member 3 (Homo sapiens) | inactive |

Ask: Tell me the assay call for O[Si](c1ccccc1)(c1ccccc1)c1ccccc1 please.
Reply: inactive

Ask: Tell me the assay call for Cc1cc(C)c(O)c(C(C)(C)C)c1 please.
Reply: inactive

Ask: Tell me the assay call for COc1ccc(OC)c(N=Nc2c(O)ccc3ccccc23)c1 please.
Reply: inactive

Ask: Tell me the assay call for CC/C(=C(/c1ccc(O)cc1)c1ccc(OCCN(C)C)cc1)c1ccccc1 please.
Reply: active

Ask: Tell me the assay call for NC(=O)c1ccccc1Cl please.
Reply: inactive

Ask: Tell me the assay call for CC(=O)Nc1ccc(N=Nc2cc(C)ccc2O)cc1 please.
Reply: inactive

Ask: Tell me the assay call for CSc1nnc(C(C)(C)C)c(=O)[nH]1 please.
Reply: inactive

Ask: Tell me the assay call for CC1=C(/C=C/C(C)=C/C=C/C(C)=C\C(=O)O)C(C)(C)CCC1 please.
Reply: inactive

* * *

- target system: Cytochrome P450 3A4 (Homo sapiens) (UniProt P08684)
- Sequence (P08684 whole entry, looked up): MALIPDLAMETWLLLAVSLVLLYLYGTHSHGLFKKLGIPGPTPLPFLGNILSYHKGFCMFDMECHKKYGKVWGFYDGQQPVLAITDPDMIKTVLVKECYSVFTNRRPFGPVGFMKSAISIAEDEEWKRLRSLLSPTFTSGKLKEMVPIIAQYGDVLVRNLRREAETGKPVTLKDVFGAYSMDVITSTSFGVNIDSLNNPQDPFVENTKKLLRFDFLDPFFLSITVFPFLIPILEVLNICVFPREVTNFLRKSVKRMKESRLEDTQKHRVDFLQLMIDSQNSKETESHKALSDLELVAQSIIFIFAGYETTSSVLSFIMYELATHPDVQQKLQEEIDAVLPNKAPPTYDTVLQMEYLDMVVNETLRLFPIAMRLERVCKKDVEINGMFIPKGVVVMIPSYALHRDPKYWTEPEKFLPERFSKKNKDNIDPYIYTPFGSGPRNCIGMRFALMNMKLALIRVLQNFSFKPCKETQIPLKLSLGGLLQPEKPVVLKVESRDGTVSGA
- experiment description: Cytochrome P450 Family 3 Subfamily A Member 4 (CYP3A4) small molecule antagonists: luciferase reporter qHTS assay (AID 1671201); note: nearly all actives have a fitted effect of over 50% in size
- experimental context: P450-Glo CYP3A4 enzyme, luciferin luminescence, 1 h; series mostly up to 115 µM
Records with an inconclusive call do not appear. Active and inactive are the calls of the source. The call rests on the fitted dose curve; in most records, active means well fitted inhibition curve with a large enough effect in the repeat runs; inconclusive means weak or mixed curves; inactive means no such curve, though single readings can be large or run the other way.
Hi! Could you answer with just one of these? 1 (yes) for active, 0 (no) for inactive

Below, 8 compounds whose answers are already recorded.
| compound | classification |
| --- | --- |
| CCCCCCCCCCCCN1CCCC1=O | 0 (no) |
| COc1c(Br)cc(Br)c(C)c1Br | 0 (no) |
| C=Cc1ccncc1 | 0 (no) |
| Nc1ccc2c(S(=O)(=O)O)cccc2c1S(=O)(=O)O | 0 (no) |
| C=CCc1cc(S(=O)(=O)c2ccc(O)c(CC=C)c2)ccc1O | 1 (yes) |
| C/C(=C\c1ccc(C(=O)O)cc1)c1ccc2c(c1)C(C)(C)CCC2(C)C | 0 (no) |
| Nc1ccc(Cl)c([N+](=O)[O-])c1 | 0 (no) |
| CCC1(C)C(=O)N(Cl)C(=O)N1Cl (stereo not drawn) | 0 (no) |

Ask: Tell me the assay call for CC(C=O)c1ccccc1 (stereo not drawn) please.
Reply: 0 (no)

Ask: Tell me the assay call for COC(=O)c1ccc([N+](=O)[O-])cc1 please.
Reply: 0 (no)

Ask: Tell me the assay call for O=C(CCN1CCC(c2ccccc2)C1)c1ccc2c(c1)OCCO2 (stereo not drawn) please.
Reply: 0 (no)

Ask: Tell me the assay call for Clc1ccc2c(Cl)ccnc2c1 please.
Reply: 0 (no)

Ask: Tell me the assay call for CCSCC please.
Reply: 0 (no)

Ask: Tell me the assay call for O=C1OCc2ccccc21 please.
Reply: 0 (no)

Ask: Tell me the assay call for CC1=CC[C@@H](C(C)(C)O)CC1 please.
Reply: 0 (no)

* * *

- experiment description: qHTS assay for small molecules that induce genotoxicity in human embryonic kidney cells expressing luciferase-tagged ATAD5 (AID 651632); note: nearly all actives have a fitted effect of over 15% in size
- experimental context: HEK293T ATAD5-luciferase induction, 16 h; series mostly up to 83.3 µM
Results filed as inconclusive are left out. Activity calls are given as the source filed them. The call rests on the fitted dose curve; in most records, active means well fitted activation curve with a large enough effect in the repeat runs; inconclusive means weak or mixed curves; inactive means no such curve, though single readings can be large or run the other way.
Hi! Could you answer with just one of these? active, inactive

| chemical string | classification |
| --- | --- |
| CC(C)OC(=O)Nc1ccc2nc(-c3cscn3)[nH]c2c1 | active |
| CCCCCCCCCCCCCCCCCCNC(=O)OC1CCN(C(=O)OC[C@H](COC(=O)N(Cc2cccc[n+]2CC)C(=O)c2ccccc2OC)OC)CC1 | inactive |
| CCc1ncnc2cc(OC)c(OC)cc12 | inactive |
| Nc1c(CC(=O)O)cccc1C(=O)c1ccccc1 | inactive |

Ask: Tell me the assay call for CC(C)C[C@H](NC(=O)[C@@H](COC(C)(C)C)NC(=O)[C@H](Cc1ccc(O)cc1)NC(=O)[C@H](CO)NC(=O)[C@H](Cc1c[nH]c2ccccc12)NC(=O)[C@H](Cc1cnc[nH]1)NC(=O)[C@@H]1CCC(=O)N1)C(=O)N[C@@H](CCCN=C(N)N)C(=O)N1CCC[C@H]1C(=O)NNC(N)=O please.
Reply: inactive
